Measured Target: CYP2C9 (Homo sapiens, UniProt P11712)
Construct: purchased Invitrogen 2859; host or cells: insect cells infected with baculovirus (microsomes)
Sequence (P11712 whole entry): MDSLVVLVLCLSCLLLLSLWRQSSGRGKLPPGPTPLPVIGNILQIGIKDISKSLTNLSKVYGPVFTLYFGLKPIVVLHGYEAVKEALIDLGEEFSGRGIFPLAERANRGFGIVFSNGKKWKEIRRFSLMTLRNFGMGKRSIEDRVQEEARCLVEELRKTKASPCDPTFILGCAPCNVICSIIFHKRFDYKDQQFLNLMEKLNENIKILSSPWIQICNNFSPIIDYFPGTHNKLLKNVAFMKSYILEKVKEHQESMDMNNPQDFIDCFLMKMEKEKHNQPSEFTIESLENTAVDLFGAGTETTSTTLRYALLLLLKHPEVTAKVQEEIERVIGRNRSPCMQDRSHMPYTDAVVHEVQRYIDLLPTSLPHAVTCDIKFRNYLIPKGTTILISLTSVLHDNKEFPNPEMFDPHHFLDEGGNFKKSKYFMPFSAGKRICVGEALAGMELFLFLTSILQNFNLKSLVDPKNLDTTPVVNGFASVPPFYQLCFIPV
Experimental Details: Biological Test Example 7: CYP2C9 inhibition (naproxen O-demethylation)
Assay type: in vitro ADME
pIC50: −log10 of the molar value.
The threshold is inclusive: pIC50 of exactly 5 counts as condition met; values below receive condition not met.

compound=C[C@@H](c1ccc(-c2ccc(C(=O)NC(C)(C)C)cn2)cc1)N1CC[C@](CC(C)(C)O)(c2ccccc2)OC1=O qualitative_label="condition met"
compound=Cc1cnc(-c2ccc([C@H](C)N3CC[C@](CC(C)(C)O)(c4ccccc4)OC3=O)cc2)cn1 qualitative_label="condition not met"
compound=C[C@@H](c1ccc(-c2ncc(C(=O)NC3CC3)s2)cc1)N1CC[C@](CC(C)(C)O)(c2ccccc2)OC1=O qualitative_label="condition not met"
compound="C[C@@H](c1ccc(-c2ccc([S+](C)[O-])nc2)cc1)N1CC[C@](CC(C)(C)O)(c2ccccc2)OC1=O (stereo partly shown)" qualitative_label="condition not met"
compound=Cc1ccc(-c2ccc([C@H](C)N3CC[C@](CC(C)(C)O)(c4ccccc4)OC3=O)cc2)nn1 qualitative_label="condition not met"
compound=C[C@@H](c1ccc(-c2cnc(C(=O)NC3CC3)nc2)cc1)N1CC[C@](CC(C)(C)O)(c2ccccc2)OC1=O qualitative_label="condition not met"
compound=Cc1nc(C)c(-c2ccc([C@H](C)N3CC[C@](CC(C)(C)O)(c4ccccc4)OC3=O)cc2)s1 qualitative_label="condition met"
compound=C[C@@H](c1ccc(-c2cccc(S(C)(=O)=O)n2)cc1)N1CC[C@](CC(C)(C)O)(c2ccccc2)OC1=O qualitative_label="condition not met"

Please turn your attention to the following entry.
Form field: pIC50 at least 5? Entry: `C[C@@H](c1ccc(-c2ccc(S(C)(=O)=O)cn2)cc1)N1CC[C@](CC(C)(C)O)(c2ccccc2)OC1=O`
condition not met

====

Measured Target: UniProtKB P28845
Sequence (P28845 whole entry): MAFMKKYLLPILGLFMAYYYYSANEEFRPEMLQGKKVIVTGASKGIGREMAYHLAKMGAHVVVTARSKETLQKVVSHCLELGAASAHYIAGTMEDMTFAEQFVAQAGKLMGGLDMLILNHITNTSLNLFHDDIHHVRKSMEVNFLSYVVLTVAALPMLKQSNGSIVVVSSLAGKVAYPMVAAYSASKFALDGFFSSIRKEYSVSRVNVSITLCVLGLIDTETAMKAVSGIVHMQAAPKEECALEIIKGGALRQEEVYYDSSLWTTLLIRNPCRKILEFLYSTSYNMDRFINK
Experimental Details: Biological Test Example 4: microsomal 11β-HSD1 in the presence of 50% human plasma
Particulars: IC50 in Test Example 4 divided by IC50 in Test Example 1
Kindly state Shift for each of the entries shown.
Give bare numbers.

compound=C[C@@H](c1ccc(-c2ccccn2)cc1)N1CC[C@](CCCO)(c2ccc(F)cc2)OC1=O measurement=9.9
compound=C[C@@H](c1ccc(-c2ccccn2)cc1)N1CC[C@](CCC(N)=O)(c2ccc(F)cc2)OC1=O measurement=13.1
compound=CC(=O)N(C)CCC[C@]1(c2ccccc2)CCN([C@@H](C)c2ccc(-c3ccnc(C)c3)cc2)C(=O)O1 measurement=17.3

Dear colleague, could you please provide Shift for the compounds listed below?
1. Cc1cc(-c2ccc([C@H](C)N3CC[C@](CC(C)(C)O)(c4ccc(F)cc4)OC3=O)cc2)cc(C)n1
2. C[C@@H](c1ccc(-c2ccc(C(C)(C)C)nn2)cc1)N1CC[C@](CC(C)(C)O)(c2ccccc2)OC1=O
3. Cc1cc(-c2ccc([C@H](C)N3CC[C@](CC(C)(C)O)(c4ccccc4)OC3=O)cc2)ccn1
4. C=CC[C@]1(c2ccc(F)cc2)CCN([C@@H](C)c2ccc(-n3ccc(C(F)(F)F)n3)cc2)C(=O)O1
5. C[C@@H](c1ccc(-c2ccccn2)cc1)N1CC[C@](CC(C)(C)O)(c2ccccc2)OC1=O
6. Cc1cccc(-c2ccc([C@H](C)N3CC[C@](CCCO)(c4ccc(F)cc4)OC3=O)cc2)n1
7. C[C@@H](c1ccc(-c2ccc(C(F)(F)F)cn2)cc1)N1CC[C@](CCCO)(c2ccc(F)cc2)OC1=O

9.8
8.4
11.1
36.5
11.1
44.2
11.0

Please give Shift, item by item, for the list that follows.
1. C[C@@H](c1ccc(-c2ccc(C(=O)NC3CC3)nn2)cc1)N1CC[C@](CC(C)(C)C#N)(c2ccccc2)OC1=O
2. C[C@@H](c1ccc(-c2ccccn2)cc1)N1CC[C@](CCCNS(C)(=O)=O)(c2ccc(F)cc2)OC1=O
3. Cc1cc(-c2ccc([C@H](C)N3CC[C@@](C)(c4ccc(F)cc4)OC3=O)cc2)ccn1 (single isomer, unassigned)
4. C[C@@H](c1ccc(-c2ccccn2)cc1)N1CC[C@](CCCNS(C)(=O)=O)(c2ccccc2)OC1=O
5. C[C@@H](c1ccc(-c2cccnc2)cc1)N1CC[C@](CCO)(c2ccc(F)cc2)OC1=O

3.5
18.2
26.9
10.5
2.5
